- targetUnderTest: T1, 4H457-bA
- T1 chain: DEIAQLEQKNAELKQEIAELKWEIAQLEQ
- assayComment: two-hybrid library CCNG1;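 further: natural log of median RNA to DNA barcode read ratio; higher means stronger binding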
recordedEndpoint: interaction score

Example results:
binder: DENAQLEQENAELEQEIAELEWKIAQLKQ [4H1158-bA]
interaction score: 1.02

binder: DKIAQLKQEIAELEQENAELKWEIAQLKQ [4H2586-bA]
interaction score: 0.765

binder: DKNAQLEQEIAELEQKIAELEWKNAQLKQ [4H3112-bA]
interaction score: -0.509

binder: DEIAQLEQKNAELKQEIAELKWEIAQLEQ [4H457-bA]
interaction score: -0.968

binder: DKNAQLEQKIAELKQKIAELEWENAQLEQ [4H3427-bA]
interaction score: -1.11

binder: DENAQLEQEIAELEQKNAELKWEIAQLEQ [4H1081-bA]
interaction score: -0.799

Now turn to the next binder.
Give its interaction score value. Item: DEIAQLEQKIAELKQENAELKWEIAQLKQ [4H346-bA] -0.833
